Entries and their Plant response rating, Surinam Grass
tested on: Surinam grass; experiment: Test B pre-/postemergence herbicide test; type: in vivo, Urochloa decumbens; details: 500 g ai/ha; visual rating 0-100, 0 no effect, 100 complete control; preemergence
QUANTITY_MEASURED: Plant response rating, Surinam Grass

- CPD_SMILES: "CC(=NO)c1cccc(NC(=O)c2cc(C(C)(C)C)nn2C)c1"
  EXPERIMENTAL_TARGET: "Surinam grass"
  ASSAY_VALUE: 40
- CPD_SMILES: "CCn1nc(C(C)(C)C)cc1C(=O)Nc1cc(C#N)ccc1F"
  EXPERIMENTAL_TARGET: "Surinam grass"
  ASSAY_VALUE: 60
- CPD_SMILES: "C=CCn1nc(C(C)(C)C)cc1C(=O)Nc1cccc(C(C)=O)c1"
  EXPERIMENTAL_TARGET: "Surinam grass"
  ASSAY_VALUE: 10
- CPD_SMILES: "C#CCN(C)C(=O)c1ccnc(NC(=O)c2cc(C(C)(C)C)nn2CC)c1"
  EXPERIMENTAL_TARGET: "Surinam grass"
  ASSAY_VALUE: 70
- CPD_SMILES: "C=CCNC(=O)c1cccc(NC(=O)c2sc(C(C)(C)C)nc2C)c1"
  EXPERIMENTAL_TARGET: "Surinam grass"
  ASSAY_VALUE: 60
- CPD_SMILES: "CCn1nc(C(C)(C)C)cc1C(=O)Nc1nccc(OC)n1"
  EXPERIMENTAL_TARGET: "Surinam grass"
  ASSAY_VALUE: 0
- CPD_SMILES: "CCn1nc(C(C)(C)C)cc1C(=O)Nc1cccc(C(=O)NC2CC2)n1"
  EXPERIMENTAL_TARGET: "Surinam grass"
  ASSAY_VALUE: 30
- CPD_SMILES: "CCN(CC)C(=O)c1cccc(NC(=O)c2cn(C(C)(C)C)nc2C)c1"
  EXPERIMENTAL_TARGET: "Surinam grass"
  ASSAY_VALUE: 30
- CPD_SMILES: "CCn1nc(C(C)(C)C)cc1C(=O)Nc1cccc(C(C)=NO)c1"
  EXPERIMENTAL_TARGET: "Surinam grass"
  ASSAY_VALUE: 80

###

test system: velvetleaf; assay: Test A pre-/postemergence herbicide test; assay type: in vivo, Abutilon theophrasti; settings: Preemergence, 2000 g ai/ha; visual rating, 0 to 100 scale (0 no effect, 100 complete control)
The label depends only on Velvetleaf plant response rating: true (1) if it is at least 40, false (0) if it is smaller.

- CPD_SMILES: "CC(=O)c1cc(NC(=O)c2cc(C(C)(C)C)nn2C)ccc1F"
  ANSWER_LABEL: "false (0)"
- CPD_SMILES: "CCn1nc(C(C)(C)C)cc1C(=O)Nc1cccc(OC(F)(F)F)c1"
  ANSWER_LABEL: "true (1)"
- CPD_SMILES: "CCn1nc(C(C)(C)C)cc1C(=O)Nc1nc(OC)cc(SCF)n1"
  ANSWER_LABEL: "false (0)"
- CPD_SMILES: "C=CCn1nc(C(C)(C)C)cc1C(=O)Nc1cccc(C(C)=NO)c1"
  ANSWER_LABEL: "true (1)"
- CPD_SMILES: "CC(=NO)c1ccnc(NC(=O)c2cc(C(C)(C)C)nn2C)n1"
  ANSWER_LABEL: "false (0)"
- CPD_SMILES: "Cc1nc(C(C)(C)C)sc1C(=O)Nc1cccc(C(=O)NCC(F)(F)F)c1"
  ANSWER_LABEL: "false (0)"
- CPD_SMILES: "CCn1nc(C(C)(C)C)cc1C(=O)Nc1cccc(C(=O)OC)c1C"
  ANSWER_LABEL: "true (1)"
- CPD_SMILES: "CCn1nc(C(C)(C)C)cc1C(=O)Nc1cccc(C(=O)N2CC=CC2)c1"
  ANSWER_LABEL: "true (1)"
- CPD_SMILES: "CCc1nn(C(C)(C)C)nc1C(=O)Nc1cccc(C(=O)NC2CC2)c1"
  ANSWER_LABEL: "true (1)"
- CPD_SMILES: "CCn1nc(C(C)(C)C)cc1C(=O)Nc1nc(C(=O)N(C)C)ccc1F"
  ANSWER_LABEL: "true (1)"
- CPD_SMILES: "Cc1nc(C(C)(C)C)sc1C(=O)Nc1cccc(C(=O)NCCF)c1"
  ANSWER_LABEL: "false (0)"
